Recorded inhibition at 3 µM, one value per entry.
Test system: TGFβ signal
Assay: TGFβ signal inhibitory activity, (SBE)4-Luc reporter in A549 cells (Test Examples 1A and 1B)
Format: cell-based, human
Settings: Homo sapiens, A549; test compound 3 µM; Reference Examples, Table 1B; read-out: TGFβ inhibition rate, %
Method: Test Example 1A: TGFβ signal inhibitory activity (in vitro test) The compounds according to the present invention was evaluated for TGFβ signal inhibitory activity according to the method described in J. Boil .Chem., 273, 21145-21152 (1998). […] After the culture, the luciferase activity of the cells were measured by chemiluminescence (Steady Glo (trademark) luciferase assay system, available from Promega). […]

| compound | inhibition at 3 µM (%) |
| --- | --- |
| COc1cc2c(Oc3ccc(C)cc3C(=O)c3ccccc3)ccnc2cc1OCCCl | 98 |
| CCC(=O)c1ccc(OCc2ccccc2)cc1Oc1ccnc2cc(OC)c(OC)cc12 | 0 |
| COc1cc2c(Oc3ccc(C)cc3C(=O)c3ccccc3)ccnc2cc1OCCCCn1ccnc1 | 97 |
| COc1cc2nccc(Oc3ccc(Cl)cc3C(=O)Nc3ccccc3)c2cc1OC | 17 |
| COc1cc2nccc(Oc3cc(C)c(Cl)cc3C(C)=O)c2cc1OC | 94 |
| COc1cc2c(Oc3ccc(C)cc3C(=O)c3ccccc3)ccnc2cc1OCCCn1ccnc1 | 85 |
| COc1cc2nccc(Oc3ccc(Br)cc3C(=O)c3ccccc3)c2cc1OC | 73 |
| CCCOC(=O)c1cc(C(C)=O)ccc1Oc1ccnc2cc(OC)c(OC)cc12 | 67 |
| COc1cc2nccc(Oc3ccc(C)cc3C(=O)CC(C)(C)C)c2cc1OC | 53 |
| CCOC(=O)c1cc(Cl)ccc1Oc1ccnc2cc(OC)c(OC)cc12 | 84 |
| COc1cc2nccc(Oc3ccc(C)cc3C(=O)C(C)C)c2cc1OC | 97 |
| COc1cc2nccc(Oc3ccc(C(=O)c4cccc(C)c4)cc3)c2cc1OC | 0 |
| COc1cc2nccc(Oc3ccc(C)nc3)c2cc1OC | 74 |
| COc1cc2c(Oc3ccc(C)cc3C(=O)c3ccccc3)ccnc2cc1OCC(O)CN1CCC(N2CCCCC2)CC1 (stereo not drawn) | 99 |
| COc1cc2nccc(Oc3ccc(C)cc3Br)c2cc1OC | 20 |
| COc1cc2c(Oc3ccc(C)cc3C(=O)c3ccccc3)ccnc2cc1OCCCN1CCC(N2CCCC2)CC1 | 90 |
| COc1cc2nccc(Oc3cc4c5c(c3C=O)CCCN5CCC4)c2cc1OC | 0 |
| CCN(CC)CCOc1cc2nccc(Oc3ccc(C)cc3C(=O)c3ccccc3)c2cc1OC | 98 |

meta.source: patent EP1724268A1
